Test system: Staphylococcus aureus
Conditions: Concentration 32 ug.mL-1; ASSAY_TEST Inhibition of Bacterial Growth; detection method Absorption (OD600); MEDIA CAMHB; plate type 384well; NBS; CORNING #3640; time 18 hr
Description: Antibacterial activity against Staphylococcus aureus MRSA ATCC 43300 (CO-ADD:GP_020); MIC in CAMBH media, using NBS plates, by OD(600)
Entries with a potency or affinity are not part of this list.
experimental readout: Inhibition (%)
Just the number in %, nothing appended.

stdin: State the recorded Inhibition for this entry: Cc1nc(N)c(C#N)cc1C(=O)O
stdout: 4.41

stdin: Now try CC1CC(=O)Nc2nc3c(c(N)c21)CCCC3 (stereo unspecified) .
stdout: 27.94

stdin: Same question for CN1CC=C(c2cccn2C)CC1.Cl please.
stdout: 10.31

stdin: How about this compound: Cc1ccccc1C=C(C#N)C#N
stdout: 3.49

stdin: Now try CN(C)C(=O)Oc1ccc(CCl)c2cccnc12 .
stdout: 22.39

stdin: One more compound: C#CCN1CCc2nc3nc(OC)c(C#N)cc3c(N)c2C1
stdout: 26.45

stdin: What do you get for Nc1c2c(nc3c1C(c1ccccc1)CC(=O)N3)CCCC2 (stereo unspecified) ?
stdout: 28.94

stdin: Ok, now N#Cc1cc(C#N)c(N2C3CCC2CC3)nc1N
stdout: -1.36

stdin: What do we get for [N-]=[N+]=NCC(=O)c1ccc(Br)cc1 ?
stdout: 26.38

stdin: Same again, this time with N#CC(C#N)=Cc1ccc(Cl)cc1
stdout: 7.12

stdin: # iterate: CCOC(=O)c1cn(Cc2ccccc2)c2ccccc12
stdout: 3.83

stdin: Follow-up item: CNCc1cn(C)c2ccc(OC)cc12.Cl
stdout: 14.24

stdin: Further, for CCOC(=O)c1cc2cc(OC(=O)NC3CCN(Cc4ccccc4)CC3)ccc2[nH]1 ?
stdout: 20.68

stdin: NNC(=O)c1cn(Cc2ccccc2)c2ccccc12 , same question.
stdout: 1.65

stdin: Further, for CCOC(=O)C1=C(C)OC(=O)CC1c1ccccc1 (stereo unspecified) ?
stdout: 23.21

stdin: Next compound up: O=C(N1[C@H]2CC[C@@H]1C(c1nnn[nH]1)C2)C(F)(F)F (stereo partly specified)
stdout: 26.59

stdin: Next up: CCOc1nc2nc(C)c(C(=O)O)cc2c(-c2ccccc2)c1C#N
stdout: 17.86
